- Tested on: UO-31
- Test summary: Growth inhibition of human UO-31 cells assessed as cell growth inhibition
- Format: functional
The following compounds are shown together with reported GI50 values.
Lab book: enter the figure in nM, no units written.

These recorded examples may help you get a feel for the data.
CCCCCC(=O)OCC(=O)O[C@@H]1C[C@]2(C(C)C)O[C@@]1(C)[C@@H]1CC[C@@H](C)[C@H]1[C@@H]2OC(=O)/C=C/c1ccccc1 :: 41
CC(C)[C@@]12C[C@@H](OC(=O)COC(=O)/C=C/c3ccccc3)[C@@](C)(O1)[C@@H]1CC[C@@H](C)[C@H]1[C@@H]2OC(=O)/C=C/c1ccccc1 :: 66
CC(=O)OCC(=O)O[C@@H]1C[C@]2(C(C)C)O[C@@]1(C)[C@@H]1CC[C@@H](C)[C@H]1[C@@H]2OC(=O)/C=C/c1ccccc1 :: 34

So what does the record say about GI50 for `CC(C)=CC(=O)OCC(=O)O[C@@H]1C[C@]2(C(C)C)O[C@@]1(C)[C@@H]1CC[C@@H](C)[C@H]1[C@@H]2OC(=O)/C=C/c1ccccc1` ?
240

So what does the record say about GI50 for `CC(C)[C@@]12C[C@@H](OC(=O)COC(=O)c3ccccc3)[C@@](C)(O1)[C@@H]1CC[C@@H](C)[C@H]1[C@@H]2OC(=O)/C=C/c1ccccc1` ?
115

---

- System: RXF 393
- Test summary: Growth inhibition of human RXF 393 cells assessed as inhibition of cell growth
- Type: functional
Decision: GI50 beneath 1000 nM gives Fulfilled; GI50 meeting or exceeding 1000 nM gives Not fulfilled.

CC(C)[C@@]12C[C@@H](OC(=O)COC(=O)/C=C/c3ccccc3)[C@@](C)(O1)[C@@H]1CC[C@@H](C)[C@H]1[C@@H]2OC(=O)/C=C/c1ccccc1 :: Fulfilled
CC(C)[C@@]12C[C@@H](OC(=O)/C=C/c3ccccc3)[C@@](C)(O1)[C@@H]1CC[C@@H](C)[C@H]1[C@@H]2OC(=O)/C=C/c1ccccc1 :: Not fulfilled
CC(C)=CC(=O)OCC(=O)O[C@@H]1C[C@]2(C(C)C)O[C@@]1(C)[C@@H]1CC[C@@H](C)[C@H]1[C@@H]2OC(=O)/C=C/c1ccccc1 :: Fulfilled
CCCCCC(=O)OCC(=O)O[C@@H]1C[C@]2(C(C)C)O[C@@]1(C)[C@@H]1CC[C@@H](C)[C@H]1[C@@H]2OC(=O)/C=C/c1ccccc1 :: Fulfilled
CC(C)[C@@]12C[C@@H](OC(=O)COS(C)(=O)=O)[C@@](C)(O1)[C@@H]1CC[C@@H](C)[C@H]1[C@@H]2OC(=O)/C=C/c1ccccc1 :: Not fulfilled

Just wondering, is GI50 of `CC(C)[C@@]12C[C@@H](OC(=O)[C@@H]3CO3)[C@@](C)(O1)[C@@H]1CC[C@@H](C)[C@H]1[C@@H]2OC(=O)/C=C/c1ccccc1` below 1000 nM?
Not fulfilled
